Target: Mitogen-activated protein kinase 14 (Homo sapiens, UniProt Q16539); also: test concentration or dose not given here
Sequence (Q16539 whole entry): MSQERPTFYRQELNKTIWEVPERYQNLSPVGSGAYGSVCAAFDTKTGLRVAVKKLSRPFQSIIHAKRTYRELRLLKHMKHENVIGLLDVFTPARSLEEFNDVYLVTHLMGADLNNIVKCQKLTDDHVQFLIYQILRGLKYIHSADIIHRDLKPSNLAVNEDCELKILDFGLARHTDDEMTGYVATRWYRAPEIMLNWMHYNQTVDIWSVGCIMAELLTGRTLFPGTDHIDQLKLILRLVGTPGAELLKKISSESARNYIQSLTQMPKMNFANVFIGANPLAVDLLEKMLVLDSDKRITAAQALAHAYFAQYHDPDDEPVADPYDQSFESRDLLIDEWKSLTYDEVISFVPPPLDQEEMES
Classification by ΔTm | ranges: Low: < 2 °C; Medium: ≥ 2 °C and < 5 °C; High: ≥ 5 °C

Bin this entry: Cc1ccc(C(=O)N[C@@H](CCC2CCCCC2)C(N)=O)cc1NC(=O)c1cc(-c2ccccc2)n[nH]1
Medium

Bin this entry: CNC(=O)c1ccc(CNC(=O)c2cnn(-c3ccccc3)c2N)cc1
Medium

Bin this entry: NC(=O)[C@H](CC1CCCCC1)NC(=O)c1ccc(CNC(=O)c2cnn(-c3ccccc3)c2)cc1
Low

Bin this entry: Nc1c(C(=O)NCc2ccc(C(=O)NC3CC3)cc2)cnn1-c1ccccc1
Medium

Bin this entry: Cc1ccc(C(=O)N[C@@H](CCC2CCCCC2)C(N)=O)cc1NC(=O)c1cnn(-c2ccccc2)c1
High

Bin this entry: O=C(NCc1ccc(C(=O)NC2CC2)cc1)c1cnn(-c2ccccc2)c1
Low

Bin this entry: Cc1ccc(-n2nc(C(C)(C)C)cc2NC(=O)c2ccc(C)c(NC(=O)c3ccc(-c4ccccc4Cl)s3)c2)cc1
Medium

Bin this entry: NC(=O)[C@H](CC1CCCCC1)NC(=O)c1ccc(CNC(=O)c2cnn(-c3ccccc3)c2C(F)(F)F)cc1
Low

Bin this entry: Cc1ccc(C(=O)NC2(C(N)=O)CC2)cc1NC(=O)c1ccc(-c2ccccc2Cl)s1
High

Bin this entry: Cc1ccccc1-n1cc(C(=O)NCc2ncc(C(=O)N[C@@H](CCC3CCCCC3)C(N)=O)s2)cn1
High

Bin this entry: CC(NC(=O)c1cnn(-c2ccccc2)c1C(F)(F)F)c1ccc(C(=O)N[C@@H](CCC2CCCCC2)C(N)=O)cc1 (stereo partly drawn)
Low
